Some compounds, each annotated with its measured pEC50.
Target: human GLP1R (Homo sapiens)
Sequence (P43220 24-463): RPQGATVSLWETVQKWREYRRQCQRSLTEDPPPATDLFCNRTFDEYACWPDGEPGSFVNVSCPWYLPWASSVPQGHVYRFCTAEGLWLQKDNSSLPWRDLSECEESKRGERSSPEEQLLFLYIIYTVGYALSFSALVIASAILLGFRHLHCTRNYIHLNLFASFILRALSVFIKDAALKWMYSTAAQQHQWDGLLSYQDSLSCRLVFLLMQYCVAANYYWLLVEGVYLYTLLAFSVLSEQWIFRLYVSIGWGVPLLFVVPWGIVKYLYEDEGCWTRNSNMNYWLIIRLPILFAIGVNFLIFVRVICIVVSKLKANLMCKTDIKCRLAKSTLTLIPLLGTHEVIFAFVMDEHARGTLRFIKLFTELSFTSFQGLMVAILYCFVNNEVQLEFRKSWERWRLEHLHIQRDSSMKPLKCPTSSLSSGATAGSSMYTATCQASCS
Assay: Luciferase reporter assay, HEK293/CRE-Luc/hGLP1R (Example 17)
Type: cell-based
Design: engineered to express full-length human GLP1R, cynomolgus GLP1R; expressed in transfected cells; host or cells: HEK293/CRE-Luc
Details: HEK293/CRE-Luc/hGLP1R; payloads and linker-payloads; experiments A-E, M2361 repeated in each; read-out: EC50
pEC50: −log10 of the molar value. Where a SMILES comes first, the peptide text is derived from it. [ ]: non-standard residue; d: D form. The star is where a group is joined. Bip(2'-Et,4'-O(CH2)4NH2) = CCc1cc(OCCCCN)ccc1-c1ccc(C[C@H](N)C(=O)O)cc1; Nva(5-(3,5-Me2Ph)) = Cc1cc(C)cc(CCC[C@H](N)C(=O)O)c1; Ala(1H-tetrazol-5-yl) = N[C@@H](Cc1nnn[nH]1)C(=O)O; αMePhe(2-F) = C[C@](N)(Cc1ccccc1F)C(=O)O; X3 = CC(C)(C(=O)*)c1ccn[nH]1
readout: pEC50

CCc1cc(OCCCCN)ccc1-c1ccc(C[C@H](NC(=O)[C@H](CC(=O)O)NC(=O)[C@H](CO)NC(=O)[C@@H](NC(=O)[C@](C)(Cc2ccccc2F)NC(=O)[C@@H](NC(=O)CNC(=O)[C@H](Cc2nn[nH]n2)NC(=O)C(C)(C)c2ccn[nH]2)[C@@H](C)O)[C@@H](C)O)C(=O)N[C@@H](CCCc2cc(C)cc(C)c2)C(N)=O)cc1 [P6] (X3-[Ala(1H-tetrazol-5-yl)]GT[αMePhe(2-F)]TSD[Bip(2'-Et,4'-O(CH2)4NH2)][Nva(5-(3,5-Me2Ph))]-NH2); 9.22
CCc1cc(OCCCCNC(=O)[C@H](CO)NC(=O)CNC(=O)CNC(=O)CNC(=O)CNC(=O)CCC(=O)N2Cc3ccccc3C#Cc3ccccc32)ccc1-c1ccc(C[C@H](NC(=O)[C@H](CC(=O)O)NC(=O)[C@H](CO)NC(=O)[C@@H](NC(=O)[C@](C)(Cc2ccccc2F)NC(=O)[C@@H](NC(=O)CNC(=O)[C@H](Cc2nn[nH]n2)NC(=O)C(C)(C)C(=O)NCCc2cnc[nH]2)[C@@H](C)O)[C@@H](C)O)C(=O)N[C@@H](CCCc2cc(C)cc(C)c2)C(N)=O)cc1 [LP6, DIBAC- suc-G4S- P9]; 10.60
CCc1cc(OCCCCn2cc(COCCOCCOCCOCCOCCOCCOCCOCCN)nn2)ccc1-c1ccc(C[C@H](NC(=O)[C@H](CC(=O)O)NC(=O)[C@H](CO)NC(=O)[C@@H](NC(=O)[C@](C)(Cc2ccccc2F)NC(=O)[C@@H](NC(=O)CNC(=O)[C@H](Cc2nn[nH]n2)NC(=O)C(C)(C)C(=O)NCCc2cnc[nH]2)[C@@H](C)O)[C@@H](C)O)C(=O)N[C@@H](CCCc2cc(C)cc(C)c2)C(N)=O)cc1 [M3190]; 10.79
CCc1cc(OCCCCNC(=O)CNC(=O)CNC(=O)CNC(=O)CNC(=O)[C@H](CO)NC(=O)CCC(=O)N2Cc3ccccc3C#Cc3ccccc32)ccc1-c1ccc(C[C@H](NC(=O)[C@H](CC(=O)O)NC(=O)[C@H](CO)NC(=O)[C@@H](NC(=O)[C@](C)(Cc2ccccc2F)NC(=O)[C@@H](NC(=O)CNC(=O)[C@H](Cc2nn[nH]n2)NC(=O)C(C)(C)C(=O)NCCc2cnc[nH]2)[C@@H](C)O)[C@@H](C)O)C(=O)N[C@@H](CCCc2cc(C)cc(C)c2)C(N)=O)cc1 [LP7, DIBAC-suc-SG4-P9]; 11.01
CCc1cc(OCCCCNC(=O)[C@H](CO)NC(=O)CNC(=O)CNC(=O)CNC(=O)CN)ccc1-c1ccc(C[C@H](NC(=O)[C@H](CC(=O)O)NC(=O)[C@H](CO)NC(=O)[C@@H](NC(=O)[C@](C)(Cc2ccccc2F)NC(=O)[C@@H](NC(=O)CNC(=O)[C@H](Cc2nn[nH]n2)NC(=O)C(C)(C)C(=O)NCCc2cnc[nH]2)[C@@H](C)O)[C@@H](C)O)C(=O)N[C@@H](CCCc2cc(C)cc(C)c2)C(N)=O)cc1 [M2739, G4S-P9]; 11.00
